So I've got a bunch of compounds here, and I need their pEC50 values.
tested.system: human full-length FXR (Homo sapiens, UniProt Q96RI1)
Sequence (Q96RI1 whole entry): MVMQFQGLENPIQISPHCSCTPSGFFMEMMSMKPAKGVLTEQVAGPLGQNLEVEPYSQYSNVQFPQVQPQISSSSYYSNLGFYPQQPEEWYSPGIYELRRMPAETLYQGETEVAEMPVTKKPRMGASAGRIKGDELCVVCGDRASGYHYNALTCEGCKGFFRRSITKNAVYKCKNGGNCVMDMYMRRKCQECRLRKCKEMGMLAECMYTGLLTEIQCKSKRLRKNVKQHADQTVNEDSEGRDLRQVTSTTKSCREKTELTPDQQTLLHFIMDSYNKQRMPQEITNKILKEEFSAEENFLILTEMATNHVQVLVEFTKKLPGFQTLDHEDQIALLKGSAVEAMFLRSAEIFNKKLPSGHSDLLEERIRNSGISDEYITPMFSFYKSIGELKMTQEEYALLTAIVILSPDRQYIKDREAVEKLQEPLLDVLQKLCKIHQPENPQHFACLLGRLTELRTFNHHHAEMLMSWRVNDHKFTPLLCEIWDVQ
Sequence (P19793 whole entry partner): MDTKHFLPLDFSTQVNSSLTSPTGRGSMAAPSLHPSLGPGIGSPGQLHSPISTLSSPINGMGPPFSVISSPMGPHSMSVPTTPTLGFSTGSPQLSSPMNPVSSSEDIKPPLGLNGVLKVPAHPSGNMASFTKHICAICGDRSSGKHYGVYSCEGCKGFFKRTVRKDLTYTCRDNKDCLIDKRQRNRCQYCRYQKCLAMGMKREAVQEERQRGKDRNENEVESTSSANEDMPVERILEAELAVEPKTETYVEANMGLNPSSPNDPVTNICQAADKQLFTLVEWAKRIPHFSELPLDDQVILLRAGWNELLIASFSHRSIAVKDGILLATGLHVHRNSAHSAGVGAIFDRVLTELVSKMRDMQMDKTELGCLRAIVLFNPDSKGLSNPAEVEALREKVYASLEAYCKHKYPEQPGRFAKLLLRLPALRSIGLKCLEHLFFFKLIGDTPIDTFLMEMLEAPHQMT
assay.details: full-length FXR-BSEP reporter gene assay
A value of pEC50 is the negative decimal logarithm of a concentration given in moles per litre.

Quick check: pEC50 of COc1cc(C(=O)O)ccc1Cc1cn(C)c2ccc(NC(=O)c3ccncc3)cc12 ?
6.04

Quick check: pEC50 of COc1cc(C(=O)O)ccc1Cc1cn(C)c2ccc(NC(=O)c3ccc(C(C)(C)C)cc3)cc12 ?
6.22

Quick check: pEC50 of COc1cc(C(=O)O)ccc1Cn1ccc2cc(NC(=O)c3ccc(C(C)(C)C)cc3)ccc21 ?
5.04

Quick check: pEC50 of Cn1cc(Cc2cccc(C(=O)O)c2)c2cc(NC(=O)c3ccc(C(C)(C)C)cc3)ccc21 ?
5.92

Quick check: pEC50 of COc1cc(C(=O)O)ccc1Cn1cnc2ccc(NC(=O)c3ccc(C(C)(C)C)cc3)cc21 ?
5.28

Quick check: pEC50 of COc1cc(C(=O)O)ccc1Cc1cn(C(C)C)c2ccc(NC(=O)c3ccc(C(C)(C)C)cc3)cc12 ?
5.64
